B1: tRNA (parent)
chain: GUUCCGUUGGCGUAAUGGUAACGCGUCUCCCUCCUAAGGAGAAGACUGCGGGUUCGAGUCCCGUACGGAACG

Variants of: B1
ASSAY NAME: yeast fitness relative to wild type (ratio to wild type); higher = fitter; tRNA-Arg(CCU), competitive growth, 37 C, YPD
Fewer inactive variants are shown than the library holds.
# label = 1.0 if yeast fitness >= 0.6 else 0.0

{"columns": ["MUTATION ID", "LABEL CLASS"],
 "data": [
  ["U2G A45U C66U", 0.0],
  ["U2G A14C C30U U54G C55A", 0.0],
  ["C34U G50C", 0.0],
  ["U13C C31U C55G G67C", 0.0],
  ["U3A C31U A70U", 1.0],
  ["G38C U64A C66U", 0.0],
  ["U26C A70G", 1.0],
  ["C11A A36G A43C A69U", 0.0],
  ["G12A A43U A45C G50C C60U", 0.0],
  ["C5A U16A C22G A37U", 1.0]
]}

meta.source: the RNAGym collection of RNA variant scans (doi:10.1126/science.aae0568)
